I'd be grateful if you could share measured Functional Activity rNPFF2 I.A. % for these entries.
biological target: rat NPFF2 receptor (Rattus norvegicus); construct: The full-length NPFF2 was amplified from rat spinal cord cDNA; expressed in transfected cells; host or cells: not given; experiment: Functional assay (agonist potency, intrinsic activity) at cloned rat NPFF2 receptor; type: cell-based; conditions: Table 4; percent of maximum response elicited by neuropeptide FF
Sequence (Q9EQD2 whole entry): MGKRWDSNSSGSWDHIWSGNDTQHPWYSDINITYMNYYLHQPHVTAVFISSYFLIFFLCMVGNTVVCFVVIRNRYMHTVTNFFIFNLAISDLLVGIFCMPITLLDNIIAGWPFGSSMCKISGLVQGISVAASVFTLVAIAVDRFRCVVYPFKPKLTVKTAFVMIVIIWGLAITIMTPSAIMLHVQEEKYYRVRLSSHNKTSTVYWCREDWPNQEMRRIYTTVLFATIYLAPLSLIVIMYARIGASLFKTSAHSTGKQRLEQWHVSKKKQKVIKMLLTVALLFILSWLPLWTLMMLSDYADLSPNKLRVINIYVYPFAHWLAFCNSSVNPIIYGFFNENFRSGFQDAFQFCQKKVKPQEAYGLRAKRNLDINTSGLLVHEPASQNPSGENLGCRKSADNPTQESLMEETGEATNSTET
One number for each entry, in %.

[[record]]
molecule = "N=C(N)NCCC[C@H](NS(=O)(=O)c1ccccc1Br)C(=O)N[C@@H](Cc1ccccc1)C(N)=O [Compound 2001B]"
assayendpoint = "Functional Activity rNPFF2 I.A. %"
reading = 9

[[record]]
molecule = "Cc1ccc(S(=O)(=O)N[C@@H](CCCNC(=N)N)C(=O)N[C@@H](Cc2ccccc2)C(N)=O)cc1 [Compound 1007B]"
assayendpoint = "Functional Activity rNPFF2 I.A. %"
reading = 55

[[record]]
molecule = "N#Cc1ccccc1S(=O)(=O)N[C@@H](CCCNC(=N)N)C(=O)N[C@@H](Cc1ccccc1)C(N)=O [Compound 1027B]"
assayendpoint = "Functional Activity rNPFF2 I.A. %"
reading = 48


For each of the items listed, what is its Functional Activity rNPFF2 I.A. %?
1. N=C(N)NCCC[C@H](NS(=O)(=O)c1ccccc1[N+](=O)[O-])C(=O)N[C@@H](Cc1ccccc1)C(N)=O [Compound 1026B]
2. COc1ccc(C)cc1S(=O)(=O)N[C@@H](CCCNC(=N)N)C(=O)N[C@@H](Cc1ccccc1)C(N)=O [Compound 2003B]

[out]
59
52

* * *

molecular target: human α1B adrenergic receptor (Homo sapiens, UniProt P35368); construct: host or cells: LM(tk-) cells, line L-α1B; experiment: Binding at human α1B adrenergic receptor; conditions: Table 8; read-out: hα1B Ki
Sequence (P35368 whole entry): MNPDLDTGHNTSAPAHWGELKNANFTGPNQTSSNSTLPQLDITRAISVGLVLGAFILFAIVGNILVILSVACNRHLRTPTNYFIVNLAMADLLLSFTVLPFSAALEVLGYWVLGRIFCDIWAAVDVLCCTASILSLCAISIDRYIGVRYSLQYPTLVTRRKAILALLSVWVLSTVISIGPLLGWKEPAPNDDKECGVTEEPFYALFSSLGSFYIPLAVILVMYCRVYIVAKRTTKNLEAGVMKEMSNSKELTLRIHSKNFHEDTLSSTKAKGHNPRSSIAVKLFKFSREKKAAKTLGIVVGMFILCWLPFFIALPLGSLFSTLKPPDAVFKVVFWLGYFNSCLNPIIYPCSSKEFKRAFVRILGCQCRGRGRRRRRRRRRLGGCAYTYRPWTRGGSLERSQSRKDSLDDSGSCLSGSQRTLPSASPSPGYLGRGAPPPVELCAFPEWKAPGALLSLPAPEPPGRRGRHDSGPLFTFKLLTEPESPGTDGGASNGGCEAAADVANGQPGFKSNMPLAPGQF
I'd be grateful if you could share measured Ki for these entries.
One number for each entry, in µM.

[[record]]
molecule = "Cc1nc(NC(=N)N)nc2ccc3ccccc3c12 [Compound 1007A]"
reading = 3.04


Could you now consider this next molecule?
[in] Entry Cc1nc(NC(=N)N)nc2ccccc12 [Compound 1001A, N-(4-methyl-2-quinazolinyl)guanidine] : reported Ki = ?
[out] 9.86

* * *

Protein target, amino acids: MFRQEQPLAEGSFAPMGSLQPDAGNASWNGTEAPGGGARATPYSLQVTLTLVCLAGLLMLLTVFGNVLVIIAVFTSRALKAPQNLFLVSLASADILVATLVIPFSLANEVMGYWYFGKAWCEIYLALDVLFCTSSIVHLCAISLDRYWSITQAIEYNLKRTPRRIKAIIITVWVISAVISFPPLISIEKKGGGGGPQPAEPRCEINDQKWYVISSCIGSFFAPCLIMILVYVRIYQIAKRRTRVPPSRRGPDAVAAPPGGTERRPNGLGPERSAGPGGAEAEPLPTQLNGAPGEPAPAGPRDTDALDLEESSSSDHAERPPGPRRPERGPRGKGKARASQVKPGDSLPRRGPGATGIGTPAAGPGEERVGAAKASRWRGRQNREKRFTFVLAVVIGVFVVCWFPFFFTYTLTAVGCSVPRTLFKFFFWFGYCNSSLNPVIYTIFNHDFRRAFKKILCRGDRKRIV
Output yes for records whose Ki is lower than 300 nM, no for records at or above 300 nM.

Please review the following examples before continuing.
[[record]]
compound = "CCc1ccc2c(C)nc(NC(=N)N)nc2c1 [Compound 1020A]"
class = "no"

[[record]]
compound = "Cc1cc(NC(=N)N)nc2ccc(Cl)cc12 [Compound 4005A]"
class = "yes"

[[record]]
compound = "CCc1ccc2nc(NC(=N)N)nc(C)c2c1 [Compound 1003A]"
class = "no"

[[record]]
compound = "CCCCCc1ccc2nc(NC(=N)N)nc(C)c2c1 [Compound 2001A]"
class = "no"

[[record]]
compound = "CCc1ccc2nc(NC(=N)N)cc(C)c2c1 [Compound 4002A]"
class = "yes"


Next compound, please.
[in] API: query returns whether the compound falls strictly under 300 nM in Ki. Query: CCC(C)c1ccc2nc(NC(=N)N)nc(C)c2c1 (stereo not drawn) [Compound 2002A]
[out] no
